Collected IC50 (mut)/IC50 (wt) values appear next to each entry.
- test_target: T1, VEGF (human, UniProt P15692-4 27-191, limits assumed)
- T1 construct: Biotinylated in the KDR-IgG ELISA, amine-coupled to the chip in BIAcore; also called biotinylated VEGF; vascular endothelial growth factor
- T1 sequence (P15692 other isoform, or with tags, fused parts or gaps limits assumed): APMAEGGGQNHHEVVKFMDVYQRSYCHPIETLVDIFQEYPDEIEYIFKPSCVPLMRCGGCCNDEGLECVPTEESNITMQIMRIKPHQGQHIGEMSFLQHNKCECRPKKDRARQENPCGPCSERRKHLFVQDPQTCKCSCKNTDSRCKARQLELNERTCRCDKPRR
- measurement_description: competitive phage-ELISA, relative to pY0192
readout_label: IC50 (mut)/IC50 (wt) (ratio)

binder | readout_label | reported_measurement
pY0192 VL Y32A (Fab, V domains shown, Ala-scan variant of pY0192; Fab on phage; also called Y32A (VL)) VH: EVQLVESGGGLVQPGGSLRLSCAASGYTFTNYGINWVRQAPGKGLEWVGWINTYTGEPTYAADFKRRFTFSLDTSKSTAYLQMNSLRAEDTAVYYCAKYPHYYGSSHWYFDVWGQGTL VL: DIQLTQSPSSLSASVGDRVTITCRANEQLSNALNWYQQKPGKAPKVLIYFTSSLHSGVPSRFSGSGSGTDFTLTISSLQPEDFATYYCQQYSTVPWTFGQGTKVEIKR | IC50 (mut)/IC50 (wt) | 2
pY0192 VH R66A (Fab, V domains shown, Ala-scan variant of pY0192; Fab on phage) VH: EVQLVESGGGLVQPGGSLRLSCAASGYTFTNYGINWVRQAPGKGLEWVGWINTYTGEPTYAADFKARFTFSLDTSKSTAYLQMNSLRAEDTAVYYCAKYPHYYGSSHWYFDVWGQGTL VL: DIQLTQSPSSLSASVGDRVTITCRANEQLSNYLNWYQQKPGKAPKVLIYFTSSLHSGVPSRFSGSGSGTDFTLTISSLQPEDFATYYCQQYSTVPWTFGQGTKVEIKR | IC50 (mut)/IC50 (wt) | 1
pY0192 VH F64A (Fab, V domains shown, Ala-scan variant of pY0192; Fab on phage) VH: EVQLVESGGGLVQPGGSLRLSCAASGYTFTNYGINWVRQAPGKGLEWVGWINTYTGEPTYAADAKRRFTFSLDTSKSTAYLQMNSLRAEDTAVYYCAKYPHYYGSSHWYFDVWGQGTL VL: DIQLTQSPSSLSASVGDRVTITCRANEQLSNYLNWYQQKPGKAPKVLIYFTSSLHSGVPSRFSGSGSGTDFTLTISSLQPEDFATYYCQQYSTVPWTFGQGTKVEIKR | IC50 (mut)/IC50 (wt) | 1
